Attribution: paper PMC7819943

- target or system: OsSMF1 (Oryza sativa, UniProt Q6ZLB0 1-436)
- Sequence: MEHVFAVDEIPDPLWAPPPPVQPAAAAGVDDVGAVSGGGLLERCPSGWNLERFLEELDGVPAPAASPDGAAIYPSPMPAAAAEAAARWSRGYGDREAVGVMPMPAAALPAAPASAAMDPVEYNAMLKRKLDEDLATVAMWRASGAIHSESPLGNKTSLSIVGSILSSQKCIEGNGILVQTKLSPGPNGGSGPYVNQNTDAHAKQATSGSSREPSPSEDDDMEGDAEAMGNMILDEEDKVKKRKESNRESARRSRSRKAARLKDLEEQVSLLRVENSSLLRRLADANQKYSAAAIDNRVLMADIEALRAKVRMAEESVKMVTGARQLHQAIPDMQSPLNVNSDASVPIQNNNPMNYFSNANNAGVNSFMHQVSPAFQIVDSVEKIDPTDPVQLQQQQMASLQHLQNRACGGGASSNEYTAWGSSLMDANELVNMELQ
- test name: protein-binding microarray (RPBM); PBS, 2% BSA, 51.3 ng/ul salmon testes DNA, 50 uM zinc acetate, 200 nM TF, 25 C, 1 h; high values mean tight binding
- settings: protein: recombinant; tags: N-terminal polyhistidine and DsRed monomer fusion (pET32a); chain copies: 2; label: CyDye5-dUTP incorporated in the synthesized complementary strand; 3' TTTTT single-stranded linker to array surface; dsDNA, one strand shown
In all, about 39,000 sequences were measured (“fluorescence intensity (a.u.)”: median about 4,300, highest 2% from about 39,000 on). The entries come from a sample that favours the highest values as a whole.
Measured binding signal by item

Worked examples, 5 sequences total:
residues	binding signal
TTTGTGGTTGGAGGTTATGAATCATACTCGAGGCATAGTTCGGAGTCACCTAGTGCAG	22000 fluorescence intensity (a.u.)
TCTGGTCTTTCCGCGTGTCGACGACCACGGTGGCGGTGCACGGAGTCACCTAGTGCAG	3540 fluorescence intensity (a.u.)
CTATCCGTCCAAATTAGGCTATCTCTAAAGATTAACTAACCGGAGTCACCTAGTGCAG	41000 fluorescence intensity (a.u.)
TTCTCAGCCAATCCCCAGCTCACACGTGCCAACTCTTCCACGGAGTCACCTAGTGCAG	7630 fluorescence intensity (a.u.)
GCGGAAAGGGAAAGGCCCGACGAATGGGAGGAATCATATACGGAGTCACCTAGTGCAG	40300 fluorescence intensity (a.u.)

GTAACTAAAGATACAAAATTATTAGTGTAACCGGAGGCATCGGAGTCACCTAGTGCAG tested on OsSMF1 (Oryza sativa, UniProt Q6ZLB0 1-436) gave binding signal: 34600 fluorescence intensity (a.u.)

Param item: ATAAAGAAGGGAGGCAGCGGGCGAGCTGTAAAGGAGTACACGGAGTCACCTAGTGCAG ; param system: OsSMF1 (Oryza sativa, UniProt Q6ZLB0 1-436); output binding signal: 32300 fluorescence intensity (a.u.)

The observed binding signal for CCGTTAGCCTCCAACGATCCAAACCGCCTCGTCATAAATACGGAGTCACCTAGTGCAG when tested with OsSMF1 (Oryza sativa, UniProt Q6ZLB0 1-436) stands at 3460 fluorescence intensity (a.u.)

Let me check: AGTCTCTAACTAAACACCATATATCTCTATTAATTACTACCGGAGTCACCTAGTGCAG , system OsSMF1 (Oryza sativa, UniProt Q6ZLB0 1-436), measured binding signal is 16000 fluorescence intensity (a.u.)

# value of binding signal, OsSMF1 (Oryza sativa, UniProt Q6ZLB0 1-436), item TATATCTAGTTTGCTCAGACCTACTGCTATTTCTTTCTGACGGAGTCACCTAGTGCAG = 41200 fluorescence intensity (a.u.)

Value (binding signal, OsSMF1 (Oryza sativa, UniProt Q6ZLB0 1-436)) for record CGGCATTATATACTAAAGAAAATGGAGGGAGTAGGAATCACGGAGTCACCTAGTGCAG = 28700 fluorescence intensity (a.u.)

Value (binding signal, OsSMF1 (Oryza sativa, UniProt Q6ZLB0 1-436)) for record CTGACGAATATACAGGAGGGAACCGAATGGCGCGCAATTGCGGAGTCACCTAGTGCAG = 21700 fluorescence intensity (a.u.)

Form field binding signal for item GTACTACTCCCTCCGTTTCTCCCTCCGTTTCAAAATGTTTCGGAGTCACCTAGTGCAG on OsSMF1 (Oryza sativa, UniProt Q6ZLB0 1-436): 3220 fluorescence intensity (a.u.)
